// reported pIC50 per item
tested on: HUT cells; test: HUT cell inhibition assay (WST-1 cell viability); assay type: cell-based; conditions: 72-96 h
pIC50: −log10 of the molar value.
result type: pIC50

molecule | val
O=C(NO)c1cnc(N2CC3C(CNCc4ccc(CN[C@H](C(=O)OC5CCCC5)c5ccccc5)cc4)C3C2)nc1 (some centres unmarked) | 5.48 to 6.48
O=C(NO)c1cnc(N2CCC(CNCC3CCC(CN[C@H](C(=O)OC4CCCC4)C4CCCCC4)CC3)CC2)nc1 (some centres unmarked) | 5.48 to 6.48
CC(C)(C)OCC(NCC1C2CN(c3ncc(C(=O)NO)cn3)CC12)C(=O)OC1CCCC1 (centres unmarked) | 5.48 to 6.48
CC(C)C[C@H](NC1CCN(c2ccc(C(=O)NO)cc2)CC1)C(=O)OC1CCCC1 | < 5.48
CC(C)C[C@H](NC1CCN(c2ncc(C(=O)NO)cn2)CC1)C(=O)OC1CCCC1 | 5.48 to 6.48
O=C(NO)c1cnc(N2CCC(NCc3ccc(CN[C@H](C(=O)OC4CCCC4)c4ccccc4)cc3)CC2)nc1 [Example 33] | > 6.48
CC(C)C[C@H](NCc1ccc(CNCC2CCN(c3ncc(C(=O)NO)cn3)CC2)cc1)C(=O)OC1CCCC1 | > 6.48
O=C(NO)c1cnc(N2CCC(CN[C@H](C(=O)OC3CCCC3)c3ccccc3)CC2)nc1 | 5.48 to 6.48
O=C(NO)c1cnc(N2CCC(N[C@@H](CO)C(=O)OC3CCCC3)CC2)nc1 | 5.48 to 6.48
O=C(NO)c1cnc(N2CCC(CNCc3ccc(CN[C@H](C(=O)OC4CCCC4)C4CCCCC4)cc3)CC2)nc1 | 5.48 to 6.48
O=C(NO)c1ccc(N2CCC(CN[C@H](C(=O)OC3CCCC3)C3CCCCC3)CC2)cc1 | < 5.48
CC(C)(C)OC[C@H](NCC1CCN(c2ncc(C(=O)NO)cn2)CC1)C(=O)OC1CCCC1 | > 6.48
O=C(NO)c1cnc(N2CCC(NCc3ccc(CN[C@H](C(=O)OC4CCCC4)c4ccccc4)cc3)CC2)nc1 [Example 31] | 5.48 to 6.48
CC(C)C[C@H](NCc1ccc(CNC2CCN(c3ncc(C(=O)NO)cn3)CC2)cc1)C(=O)OC1CCCC1 | > 6.48
CC(C)(C)OC[C@H](NCc1ccc(CNCC2CCN(c3ncc(C(=O)NO)cn3)CC2)cc1)C(=O)OC1CCCC1 | > 6.48
O=C(NO)c1cnc(N2CCC(CN[C@H](C(=O)OC3CCCC3)c3cccc4ccccc34)CC2)nc1 | 5.48 to 6.48
O=C(NO)c1cnc(N2CCC(NCc3ccc(CN[C@H](C(=O)OC4CCCC4)c4ccccc4)cc3)CC2)nc1 [Example 29] | 5.48 to 6.48

* * *

tested on: U937 cells; assay: U937 cell inhibition assay (WST-1 cell viability); type: cell-based; conditions: Homo sapiens, U-937, 72-96 h
// reported IC50 per item

molecule | experimental system | IC50
O=C(NO)c1ccc(N2CCC(CN[C@H](C(=O)OC3CCCC3)C3CCCCC3)CC2)cc1 [Example 50] | U937 cells | > 3300 nM
CC(C)C[C@H](NCC1CCN(c2ncc(C(=O)NO)cn2)CC1)C(=O)OC1CCCC1 [Example 16] | U937 cells | < 330 nM
CC(C)C[C@H](NCc1ccc(CNC2CCN(c3ncc(C(=O)NO)cn3)CC2)cc1)C(=O)OC1CCCC1 [Example 27] | U937 cells | < 330 nM
O=C(NO)c1cnc(N2CCC(CNCc3ccc(CN[C@H](C(=O)OC4CCCC4)C4CCCCC4)cc3)CC2)nc1 [Example 38] | U937 cells | < 330 nM
O=C(NO)c1cnc(N2CCC(CN[C@H](C(=O)OC3CCCC3)c3cccc4ccccc34)CC2)nc1 [Example 26] | U937 cells | 331 to 3300 nM
CC(C)C[C@H](NC1CCN(c2ccc(C(=O)NO)cc2)CC1)C(=O)OC1CCCC1 [Example 48] | U937 cells | 331 to 3300 nM
O=C(NO)c1cnc(N2CCC(CNCC3CCC(CN[C@H](C(=O)OC4CCCC4)C4CCCCC4)CC3)CC2)nc1 (stereo partly drawn) [Example 46] | U937 cells | 331 to 3300 nM
O=C(NO)c1cnc(N2CCC(NCc3ccc(CN[C@H](C(=O)OC4CCCC4)c4ccccc4)cc3)CC2)nc1 [Example 29] | U937 cells | < 330 nM
O=C(NO)c1cnc(N2CCC(CNCc3ccc(CN[C@H](C(=O)OC4CCCC4)c4ccccc4)cc3)CC2)nc1 [Example 42] | U937 cells | < 330 nM
CC(C)(C)OC[C@H](NCC1CCN(c2ncc(C(=O)NO)cn2)CC1)C(=O)OC1CCCC1 [Example 22] | U937 cells | < 330 nM
O=C(NO)c1ccc(N2CCC(CNCC3CCC(CN[C@H](C(=O)OC4CCCC4)C4CCCCC4)CC3)CC2)cc1 (stereo partly drawn) [Example 54] | U937 cells | 331 to 3300 nM
CC(C)(C)OC[C@H](NCc1ccc(CNCC2CCN(c3ncc(C(=O)NO)cn3)CC2)cc1)C(=O)OC1CCCC1 [Example 40] | U937 cells | < 330 nM
O=C(NO)c1cnc(N2CCC(CN[C@@H](CO)C(=O)OC3CCCC3)CC2)nc1 [Example 24] | U937 cells | < 330 nM
O=C(NO)c1cnc(N2CCC(CNCc3ccc(CN[C@@H](CO)C(=O)OC4CCCC4)cc3)CC2)nc1 [Example 44] | U937 cells | < 330 nM
O=C(NO)c1ccc(N2CCC(CNCc3ccc(CN[C@H](C(=O)OC4CCCC4)C4CCCCC4)cc3)CC2)cc1 [Example 52] | U937 cells | 331 to 3300 nM

* * *

// reported IC50 per item
tested on: HUT cells; assay: HUT cell inhibition assay (WST-1 cell viability); type: cell-based; details: 72-96 h
result type: IC50

compound | val
O=C(NO)c1cnc(N2CC3C(CN[C@H](C(=O)OC4CCCC4)C4CCCCC4)C3C2)nc1 (some centres unmarked) | 331 to 3300 nM
O=C(NO)c1cnc(N2CCC(CN[C@H](C(=O)OC3CCCC3)C3CCCCC3)CC2)nc1 | 331 to 3300 nM
O=C(NO)c1cnc(N2CCC(CN[C@@H](CO)C(=O)OC3CCCC3)CC2)nc1 | < 330 nM
O=C(NO)c1ccc(N2CCC(CNCc3ccc(CN[C@H](C(=O)OC4CCCC4)C4CCCCC4)cc3)CC2)cc1 | 331 to 3300 nM
O=C(NO)c1ccc(N2CCC(CNCC3CCC(CN[C@H](C(=O)OC4CCCC4)C4CCCCC4)CC3)CC2)cc1 (some centres unmarked) | 331 to 3300 nM
O=C(NO)c1cnc(N2CCC(CNCc3ccc(CN[C@H](C(=O)OC4CCCC4)c4ccccc4)cc3)CC2)nc1 | < 330 nM
O=C(NO)c1cnc(N2CCC(CNCc3ccc(CN[C@@H](CO)C(=O)OC4CCCC4)cc3)CC2)nc1 | < 330 nM
CC(C)C[C@H](NCC1CCN(c2ncc(C(=O)NO)cn2)CC1)C(=O)OC1CCCC1 | < 330 nM

* * *

tested on: U937 cells; experiment: U937 cell inhibition assay (WST-1 cell viability); format: cell-based; conditions: Homo sapiens, U-937, 72-96 h
result type: IC50

molecule | experimental system | val
CC(C)(C)OCC(NCC1C2CN(c3ncc(C(=O)NO)cn3)CC12)C(=O)OC1CCCC1 (centres unmarked) [Example 12] | U937 cells | < 330 nM
O=C(NO)c1cnc(N2CCC(CN[C@H](C(=O)OC3CCCC3)C3CCCCC3)CC2)nc1 [Example 18] | U937 cells | < 330 nM
CC(C)C[C@H](NC1CCN(c2ncc(C(=O)NO)cn2)CC1)C(=O)OC1CCCC1 [Example 1] | U937 cells | < 330 nM
O=C(NO)c1cnc(N2CCC(CN[C@H](C(=O)OC3CCCC3)c3ccccc3)CC2)nc1 [Example 20] | U937 cells | < 330 nM
O=C(NO)c1cnc(N2CC3C(CNCc4ccc(CN[C@H](C(=O)OC5CCCC5)c5ccccc5)cc4)C3C2)nc1 (some centres unmarked) [Example 35] | U937 cells | 331 to 3300 nM
O=C(NO)c1cnc(N2CCC(N[C@@H](CO)C(=O)OC3CCCC3)CC2)nc1 [Example 9] | U937 cells | 331 to 3300 nM
O=C(NO)c1cnc(N2CC3C(CN[C@H](C(=O)OC4CCCC4)C4CCCCC4)C3C2)nc1 (some centres unmarked) [Example 14] | U937 cells | 331 to 3300 nM
CC(C)C[C@H](NCc1ccc(CNCC2CCN(c3ncc(C(=O)NO)cn3)CC2)cc1)C(=O)OC1CCCC1 [Example 36] | U937 cells | < 330 nM

Values compiled from patent US8962825B2.
